Test system: PPARg:RXRa (NR concentration 180 nM, RXRa partner concentration 90 nM)
test: PBM binding z-score (relative to random genomic background probes); higher = stronger binding; sequences stand for … in GC…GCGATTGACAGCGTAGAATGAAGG
Known PBM binding z-score of a selection of sequences

Before answering, review these 2 worked examples.
# ordered residues, observed value
data = [
    ("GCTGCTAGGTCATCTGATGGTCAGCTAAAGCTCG", 1.96),
    ("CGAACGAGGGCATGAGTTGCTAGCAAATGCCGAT", 1.1),
]

Entry under test: GCGACTGGGGCACAGCAGGTTACCATAAGGTTGG . Its PBM binding z-score was 1.75

Entry under test: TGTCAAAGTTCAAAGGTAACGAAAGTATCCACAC . Its PBM binding z-score was 9.12

Entry under test: CCGACTGGGGAATAAGGTTACCATAAGCCAGCCC . Its PBM binding z-score was 1.09

Entry under test: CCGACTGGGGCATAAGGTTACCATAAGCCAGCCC . Its PBM binding z-score was 2.29

Entry under test: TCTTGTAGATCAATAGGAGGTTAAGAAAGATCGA . Its PBM binding z-score was 0.389

* * *

Known PBM binding z-score of a selection of sequences
System: VDR:RXRa (NR concentration 270 nM, RXRa partner concentration 90 nM)
test: PBM binding z-score (relative to random genomic background probes); higher = stronger binding; sequences stand for … in GC…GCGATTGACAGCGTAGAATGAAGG
Answer with the value's number alone.

# ordered residues, result type, observed value
data = [
    ("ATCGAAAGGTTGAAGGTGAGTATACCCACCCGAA", "PBM binding z-score", 0.806),
    ("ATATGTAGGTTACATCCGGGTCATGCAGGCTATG", "PBM binding z-score", 3.8),
    ("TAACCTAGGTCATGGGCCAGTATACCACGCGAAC", "PBM binding z-score", 2.88),
]

Entry under test: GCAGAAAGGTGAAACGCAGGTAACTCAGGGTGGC . Its PBM binding z-score was 0.145

Entry under test: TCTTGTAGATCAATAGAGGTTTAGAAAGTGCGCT . Its PBM binding z-score was 0.618

Entry under test: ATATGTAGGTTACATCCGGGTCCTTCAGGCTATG . Its PBM binding z-score was 0.695

Entry under test: TCTGCTAGTTCAACGATGGTCAGCTAATCTGCTA . Its PBM binding z-score was 0.196

* * *

Test system: FXR:RXRa (NR concentration 270 nM, RXRa partner concentration 90 nM)
test: PBM binding z-score (relative to random genomic background probes); higher = stronger binding; sequences stand for … in GC…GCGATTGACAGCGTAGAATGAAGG
result type: PBM binding z-score
Answer with the value's number alone.

Before answering, review these 3 worked examples.
# ordered residues, observed value
records = [
    ("CGAACTAGGTCATTGACAGGACAGTGATTAGTAA", 4.44),
    ("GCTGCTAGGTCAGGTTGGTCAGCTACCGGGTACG", 1.12),
    ("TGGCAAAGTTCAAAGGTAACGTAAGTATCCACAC", 7.23),
]

Entry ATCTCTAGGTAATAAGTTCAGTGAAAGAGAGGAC ; assay system FXR:RXRa (NR concentration 270 nM, RXRa partner concentration 90 nM); PBM binding z-score recorded at 0.945

Entry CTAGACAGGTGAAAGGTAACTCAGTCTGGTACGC ; assay system FXR:RXRa (NR concentration 270 nM, RXRa partner concentration 90 nM); PBM binding z-score recorded at 0.53
